Answer each item with its documented abundance fitness.
B1: Formin-binding protein 4, residues 593 to 636; numbered along this chain, Q8N3X1 (parent)
chain: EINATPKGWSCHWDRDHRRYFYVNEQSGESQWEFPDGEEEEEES

# Variants of: B1
# assayName: abundance fitness (aPCA) (normalised: wild type 0, dead -1); higher = more abundant; growth selection in yeast, the domain comes from the species named
# appliedConditions: Homo sapiens
One number for each entry.

Worked cases, abundance fitness given:
* Y20C | -0.196
* N3H | -0.128
* Q26G | -0.199
* G8T | -0.843
* E43T | 0.008

Hey, quick one: what's abundance fitness for each of these?
1. E43F
2. E42R
3. G37L
4. F34P
5. W13S
6. H12V

Data returned:
[0.248, 0.01, -0.151, 0.071, -0.662, -0.21]
